Listing of recorded protein stability index by entry.
B1: ZNF263 (parent)
chain: KPYKCTLCGENFSHRSNLIRHQRI

variants of: B1; experiment: protein stability index of a GFP-peptide fusion (GPS, HEK-293T) (PSI 1-6); higher = more stable; settings: c terminus: a fixed tail appended;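 also: lentivirally expressed fusions sorted by FACS into six bins by GFP to DsRed ratio, PSI derived from sequencing read proportions per bin multiplied by bin number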
Reply with just the number.

Q22T
2.54
Q22W
2.65

Bench note: what protein stability index did H21C show?
2.6

Bench note: what protein stability index did S13Q show?
2.84

Bench note: what protein stability index did Y3K show?
3.17

Bench note: what protein stability index did H14D show?
2.68

Bench note: what protein stability index did I19W show?
1.5

Bench note: what protein stability index did F12A show?
1.97

Bench note: what protein stability index did F12S show?
1.99

Bench note: what protein stability index did R23N show?
2.63

Bench note: what protein stability index did C8I show?
2.58
